Biological target: human muscarinic M1 receptor (Homo sapiens)
Construct: expressed in transfected cells
Sequence (P11229 1-460): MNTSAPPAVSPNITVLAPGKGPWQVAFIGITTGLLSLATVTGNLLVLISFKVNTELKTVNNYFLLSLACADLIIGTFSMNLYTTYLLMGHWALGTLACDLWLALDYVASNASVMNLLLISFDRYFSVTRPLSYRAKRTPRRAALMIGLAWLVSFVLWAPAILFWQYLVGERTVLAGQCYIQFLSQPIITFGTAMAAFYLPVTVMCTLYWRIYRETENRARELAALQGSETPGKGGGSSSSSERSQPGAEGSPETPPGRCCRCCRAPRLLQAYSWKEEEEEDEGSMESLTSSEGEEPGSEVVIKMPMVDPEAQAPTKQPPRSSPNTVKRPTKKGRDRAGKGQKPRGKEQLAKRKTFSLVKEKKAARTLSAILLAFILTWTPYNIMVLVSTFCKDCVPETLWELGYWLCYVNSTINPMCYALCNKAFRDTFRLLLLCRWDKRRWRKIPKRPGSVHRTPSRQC
Test: Alphascreen Surefire phospho-ERK1/2 functional assay, CHO cells expressing M1
Format: cell-based
Details: CHO, read-out: % Emax cf. ACh, M1

[
  {
    "molecule": "CCOC(=O)N1CC2(CC(N3CCC(N4CCC[C@@H]4c4cn(C)c(=O)o4)CC3)C2)C1",
    "quantity unit": "%",
    "Emax": 12
  },
  {
    "molecule": "CCOC(=O)N1CC2(CCC(N3CCC(N4C(=O)CC[C@@H]4C)CC3)C2)C1 (mixture of isomers) [Example 2-5 (mixture of isomers)]",
    "quantity unit": "%",
    "Emax": 38
  },
  {
    "molecule": "CCOC(=O)N1CC2(CC(N3CCC(N4C(=O)CC[C@H]4C)CC3)C2)C1",
    "quantity unit": "%",
    "Emax": 101
  },
  {
    "molecule": "CCOC(=O)N1CC2(CC(N3CCC(N4CCCC4c4ccon4)CC3)C2)C1 (racemic) [Example 1-5 (racemic)]",
    "quantity unit": "%",
    "Emax": 18
  },
  {
    "molecule": "COC(=O)N1CC2(CCC(N3CCC(c4nccn4C)CC3)C2)C1 (racemic) [Example 2-1 (racemic)]",
    "quantity unit": "%",
    "Emax": 42
  },
  {
    "molecule": "CCOC(=O)N1CC2(CC(N3CCC(c4nccn4C)CC3)C2)C1",
    "quantity unit": "%",
    "Emax": 100
  },
  {
    "molecule": "CCOC(=O)N1CC2(CCC(N3CCC(N4C(=O)CC[C@@H]4CC)CC3)C2)C1 (mixture of isomers) [Example 2-6 (mixture of isomers)]",
    "quantity unit": "%",
    "Emax": 71
  },
  {
    "molecule": "CCOC(=O)N1CC2(CC(N3CCC(N4CC(F)(F)C[C@@H]4CO)CC3)C2)C1",
    "quantity unit": "%",
    "Emax": 63
  }
]

====

molecular target: human muscarinic M4 receptor (Homo sapiens, UniProt P08173); construct: expressed in transfected cells; experiment: Alphascreen Surefire phospho-ERK1/2 functional assay, CHO cells expressing M4; type: cell-based; details: agonist, CHO cells, phospho-ERK1/2; read-out: pEC50 M4 (converted)
Sequence (P08173 whole entry): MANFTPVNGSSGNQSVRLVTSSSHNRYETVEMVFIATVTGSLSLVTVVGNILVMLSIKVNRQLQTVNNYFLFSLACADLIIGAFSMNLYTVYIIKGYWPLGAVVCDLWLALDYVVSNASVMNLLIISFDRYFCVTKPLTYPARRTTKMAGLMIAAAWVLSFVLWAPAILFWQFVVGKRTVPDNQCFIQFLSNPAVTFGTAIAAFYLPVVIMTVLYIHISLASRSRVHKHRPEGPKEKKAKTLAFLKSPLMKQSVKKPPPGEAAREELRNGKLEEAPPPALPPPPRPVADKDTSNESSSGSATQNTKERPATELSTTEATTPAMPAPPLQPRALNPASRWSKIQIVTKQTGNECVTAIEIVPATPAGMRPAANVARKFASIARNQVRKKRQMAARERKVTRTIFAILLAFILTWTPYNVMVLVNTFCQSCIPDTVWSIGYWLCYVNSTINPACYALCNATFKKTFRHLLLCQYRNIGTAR
EC50 values for the compounds below.
property label: EC50

[
  {
    "compound": "COC(=O)N1CC2(CCC(N3CCC(c4nccn4C)CC3)C2)C1 (racemic) [Example 2-1 (racemic)]",
    "experimental result": "15.8 nM"
  },
  {
    "compound": "CCOC(=O)N1CC2(CC(N3CCC([C@@H]4CCCN4C(=O)NC)CC3)C2)C1 [Example 1-4]",
    "experimental result": "15.8 nM"
  },
  {
    "compound": "CCOC(=O)N1CC2(CC(N3CCC(N4CCCC4c4ccon4)CC3)C2)C1 (racemic) [Example 1-5 (racemic)]",
    "experimental result": "39.8 nM"
  },
  {
    "compound": "CCOC(=O)N1CC2(CC(N3CCC(N4C(=O)CC[C@H]4C)CC3)C2)C1 [Example 1-9]",
    "experimental result": "158 nM"
  },
  {
    "compound": "CCOC(=O)N1CC2(CC(N3CCC(N4C(=O)CC[C@@H]4C)CC3)C2)C1 [Example 1-8]",
    "experimental result": "200 nM"
  }
]
